Reference for the values: ChEMBL document CHEMBL1133579

molecular target: Cysteinyl leukotriene receptor 1 (Cavia porcellus, UniProt Q2NNR5); experiment: In vitro binding affinity towards Cysteinyl leukotriene D4 receptor by using [3H]LTD4 binding assay in guinea pig lung membranes; assay type: cell membranes, Membrane
Sequence (Q2NNR5 whole entry): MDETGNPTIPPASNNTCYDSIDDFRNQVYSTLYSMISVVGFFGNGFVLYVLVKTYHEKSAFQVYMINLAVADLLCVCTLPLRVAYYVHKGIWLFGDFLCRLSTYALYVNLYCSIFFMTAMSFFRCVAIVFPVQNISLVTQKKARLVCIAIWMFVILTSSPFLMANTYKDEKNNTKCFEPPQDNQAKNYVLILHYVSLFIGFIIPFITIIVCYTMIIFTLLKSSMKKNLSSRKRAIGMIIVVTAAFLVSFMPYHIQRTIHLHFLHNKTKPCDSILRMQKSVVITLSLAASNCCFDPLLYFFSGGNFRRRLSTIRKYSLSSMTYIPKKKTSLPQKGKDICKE
pKi: −log10 of the molar value.
PARAMETER: pKi

Reference set (4 entries):
{"columns": ["MOLECULE", "PARAMETER", "VALUE_OBSERVED"],
 "data": [
  ["O=C(O)CCCc1ccc(NC(=O)Cc2ccc(OCc3ccc4ccc(Cl)cc4n3)cc2)cc1", "pKi", 8.32],
  ["O=C(O)c1ccc(CCNS(=O)(=O)c2ccc3ccc(OCc4ccc5ccccc5n4)cc3c2)cc1", "pKi", 8.59],
  ["O=C(O)CCCc1ccc(NC(=O)Cc2cccc(OCc3ccc4ccccc4n3)c2)cc1", "pKi", 7.40],
  ["CC(C(=O)NCc1ccc(CC(=O)O)cc1)c1ccc2cc(OCc3ccc4ccccc4n3)ccc2c1 (centres undefined)", "pKi", 6.87]
]}

a. O=C(O)c1ccc2c(ccn2Cc2ccc3ccc(OCc4ccc5ccccc5n4)cc3c2)c1
b. O=C(Cc1ccc(OCc2ccc3ccccc3n2)cc1)Nc1ccc(CCCc2nnn[nH]2)cc1
c. O=C(Cc1ccc(OCCCCc2ccccc2)cc1)Nc1ccc(CCCc2nnn[nH]2)cc1
d. O=C(O)c1ccc(OCC(O)COc2ccc3ccc(OCc4ccc5ccccc5n4)cc3c2)cc1 (centres undefined)
e. CC(C(=O)NCCCCC(=O)O)c1ccc2cc(OCc3ccc4ccccc4n3)ccc2c1 (centres undefined)
## Input Order the items by recorded pKi; the first position goes to the largest value. Answer by listing the labels in the order asked for.
## Output d, a, b, e, c
(d: 8.40, a: 7.52, b: 7.06, e: 6.44, c: 5.59)
